Listed here are binders together with their documented pKd.
Molecular target: T1, EsCas13d, nuclease-dead (Eubacterium siraeum, UniProt B0MS50, R295A;H300A;R849A;H854A)
T1 sequence: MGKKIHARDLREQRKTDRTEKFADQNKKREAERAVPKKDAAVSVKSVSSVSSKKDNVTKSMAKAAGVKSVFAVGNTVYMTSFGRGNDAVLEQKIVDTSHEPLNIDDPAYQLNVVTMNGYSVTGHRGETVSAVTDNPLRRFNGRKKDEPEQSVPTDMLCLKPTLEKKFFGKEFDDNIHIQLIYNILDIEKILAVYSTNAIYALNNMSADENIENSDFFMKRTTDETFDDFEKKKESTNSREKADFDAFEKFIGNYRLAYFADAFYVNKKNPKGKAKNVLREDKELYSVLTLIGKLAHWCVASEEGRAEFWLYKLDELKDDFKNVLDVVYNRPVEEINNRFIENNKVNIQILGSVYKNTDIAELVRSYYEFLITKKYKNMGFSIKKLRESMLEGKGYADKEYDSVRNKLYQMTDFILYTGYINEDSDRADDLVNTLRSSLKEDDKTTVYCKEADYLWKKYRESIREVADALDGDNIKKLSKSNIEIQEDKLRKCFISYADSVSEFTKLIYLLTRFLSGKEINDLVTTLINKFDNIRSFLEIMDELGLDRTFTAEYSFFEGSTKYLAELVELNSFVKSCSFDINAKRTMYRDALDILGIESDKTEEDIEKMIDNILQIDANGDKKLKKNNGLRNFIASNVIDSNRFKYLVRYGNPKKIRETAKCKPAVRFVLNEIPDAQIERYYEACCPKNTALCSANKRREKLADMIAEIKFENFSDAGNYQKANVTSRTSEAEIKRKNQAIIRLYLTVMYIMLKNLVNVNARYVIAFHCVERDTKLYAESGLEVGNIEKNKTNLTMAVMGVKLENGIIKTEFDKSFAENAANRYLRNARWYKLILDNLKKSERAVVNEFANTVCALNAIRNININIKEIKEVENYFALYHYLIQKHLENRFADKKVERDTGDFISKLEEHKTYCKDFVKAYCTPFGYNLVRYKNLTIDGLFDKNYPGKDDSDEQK
Experiment: crRNA (strand 1, pre-loaded); Mg2+; 40 mM Tris-HCl pH 7.5, 150 mM NaCl, 6 mM MgCl2, 1 mM DTT, 0.1% Tween-20, 0.2 mg/ml BSA; 25 C; 10 min per concentration, then washed
Details: tags: His6-TwinStrep-SUMO cleaved; N-terminal SNAP kept (SNAP-Surface 488); label: 3' end held by stalled T7 RNA polymerase
pKd: −log10 of the molar value.

binder: target 1 insU 3' of 22,insG 3' of 8 (mixed) RNA 1: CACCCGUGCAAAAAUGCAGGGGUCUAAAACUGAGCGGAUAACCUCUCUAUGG RNA 2: GGGAAUGGAUCCACAUCUACGAAUUCGUACUCAUAGAGAGGUUAUGCCGCUCACCGAGAUCGGAAGAGCACACGU
pKd: 7.31

binder: target 2 MT 5'PFS CGA 3'PFS CGA (mixed) RNA 1: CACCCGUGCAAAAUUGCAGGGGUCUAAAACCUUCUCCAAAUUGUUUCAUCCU RNA 2: GGGAAUGGAUCCACAUCUACGAAUUCCGAAGGAUGAAACAAUUUGGAGAAGCGAAGAUCGGAAGAGCACACGU
pKd: 8.28

binder: target 1 U10A,G13A (mixed) RNA 1: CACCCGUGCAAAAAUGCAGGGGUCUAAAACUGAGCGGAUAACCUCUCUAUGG RNA 2: GGGAAUGGAUCCACAUCUACGAAUUCGUACCAUAGAGAAGUAAUCCGCUCACCGAGAUCGGAAGAGCACACGU
pKd: 8.02

binder: target 1 insU 3' of 21,insC 3' of 9 (mixed) RNA 1: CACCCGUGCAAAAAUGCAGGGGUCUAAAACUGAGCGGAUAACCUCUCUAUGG RNA 2: GGGAAUGGAUCCACAUCUACGAAUUCGUACCUAUAGAGAGGUUACUCCGCUCACCGAGAUCGGAAGAGCACACGU
pKd: 7.40

binder: target 1 insC 3' of 13,insG 3' of 8 (mixed) RNA 1: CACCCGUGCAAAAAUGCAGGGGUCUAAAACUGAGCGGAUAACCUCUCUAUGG RNA 2: GGGAAUGGAUCCACAUCUACGAAUUCGUACCAUAGAGAGCGUUAUGCCGCUCACCGAGAUCGGAAGAGCACACGU
pKd: 7.86

binder: target 1 MT 5'PFS GCC 3'PFS UUU (mixed) RNA 1: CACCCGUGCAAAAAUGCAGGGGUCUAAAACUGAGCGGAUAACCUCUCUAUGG RNA 2: GGGAAUGGAUCCACAUCUACGAAUUCGCCCCAUAGAGAGGUUAUCCGCUCAUUUAGAUCGGAAGAGCACACGU
pKd: 8.03

binder: target 1 MT 5'PFS UAG 3'PFS UAA (mixed) RNA 1: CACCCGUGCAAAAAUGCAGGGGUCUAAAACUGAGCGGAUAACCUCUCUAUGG RNA 2: GGGAAUGGAUCCACAUCUACGAAUUCUAGCCAUAGAGAGGUUAUCCGCUCAUAAAGAUCGGAAGAGCACACGU
pKd: 7.67
